Recorded pIC50 for the following molecules
- targetOrTestSystem: CDK2/Cyclin E1 complex (Homo sapiens, UniProt P24941)
- experiment: CDK2 inhibition assay (Caliper/LabChip EZ Reader kinase assay)
- Assay type: biochemical
- runConditions: Table 1; CDK2/Cyclin E1 0.5 nM, ATP 2 mM, 35 min at 27° C.
pIC50: −log10 of the molar value.

{"columns": ["molecule", "pIC50"],
 "data": [
  ["FC(F)(F)c1cnc(N[C@H]2CCCNC2)nc1-c1c[nH]c2cc(-c3ccn[nH]3)ccc12", "5.30 to 6.70"],
  ["OC1CCC(c2cccc3c(-c4nc(N[C@H]5CCCNC5)ncc4C(F)(F)F)c[nH]c23)CC1 (stereo partly shown)", "6.70 to 7.70"],
  ["CC(=O)c1cnc(N[C@H]2CCCNC2)nc1-c1c[nH]c2ccccc12", "< 5.30"]
]}

Could you now look at the following molecule, please?
Suppose we examine the molecule CC(C)C1CC[C@H](Nc2ncc(C(F)(F)F)c(-c3c[nH]c4ccccc34)n2)CN1 (mixture of isomers) ; what pIC50 value has been reported? < 5.30

###

- targetOrTestSystem: CDK7/Cyclin H/MAT1 complex (Homo sapiens)
- experiment: CDK7 inhibition assay (Caliper/LabChip EZ Reader kinase assay)
- Type: biochemical
- runConditions: Table 1; CDK7/Cyclin H/MAT1 6 nM, ATP 2 mM, 35 min at 27° C.; listed as 117
pIC50: −log10 of the molar value.
metric: pIC50

Suppose we examine the compound O=S1(=O)CCn2cc(-c3nc(N[C@H]4CCCNC4)ncc3C(F)(F)F)c3cccc1c32 [Compound 348] ; what pIC50 value has been reported? 6.70 to 7.70

###

- targetOrTestSystem: CDK2/Cyclin E1 complex (Homo sapiens)
- experiment: CDK2 inhibition assay (Caliper/LabChip EZ Reader kinase assay)
- Format: biochemical
- runConditions: Table 1; CDK2/Cyclin E1 0.5 nM, ATP 2 mM, 35 min at 27° C.
- Description: Compounds of the invention were assayed for inhibition of CDK7, CDK9, CDK12, and CDK2 activity at Biortus Biosciences (Jiangyin, Jiangsu Province, P.R. of China) using kinase assays for each CDK developed with a Caliper/LabChip EZ Reader (Perkin Elmer, Waltham, MA). […]
Recorded IC50 for the following compounds

Worked examples, 3 compounds total:
{"columns": ["compound", "targetOrTestSystem", "IC50"],
 "data": [
  ["CN(C)S(=O)(=O)c1ccc2c(-c3nc(N[C@H]4CCCNC4)ncc3C(F)(F)F)c[nH]c2c1", "CDK2/Cyclin E1 complex (Homo sapiens)", "0.2 to 5 µM"],
  ["CCc1cnc(NC2CCCNC2)nc1-c1c[nH]c2c(F)cccc12 (stereo not drawn)", "CDK2/Cyclin E1 complex (Homo sapiens)", "0.2 to 5 µM"],
  ["Cc1nn(C)cc1-c1cccc2c(-c3nc(N[C@H]4CCCNC4)ncc3C(F)(F)F)c[nH]c12", "CDK2/Cyclin E1 complex (Homo sapiens)", "0.2 to 5 µM"]
]}

Suppose we examine the compound FC(F)(F)c1cnc(N[C@H]2CCCNC2)nc1-c1c[nH]c2cc(-c3ccc4[nH]cnc4c3)ccc12 ; what IC50 value has been reported? 0.2 to 5 µM

Suppose we examine the compound N#Cc1cc2[nH]cc(-c3nc(N[C@H]4CCCNC4)ncc3C(F)(F)F)c2cc1F ; what IC50 value has been reported? 0.2 to 5 µM

Suppose we examine the compound Cc1nc(-c2ccc3c(-c4nc(N[C@H]5CCCNC5)ncc4C(F)(F)F)c[nH]c3c2)n[nH]1 ; what IC50 value has been reported? 0.2 to 5 µM

Suppose we examine the compound CCc1cnc(N[C@H]2CCCNC2)nc1-c1c[nH]c2nc(C#N)ccc12 ; what IC50 value has been reported? > 5 µM

###

- targetOrTestSystem: CDK12 (aa686-1082)/Cyclin K complex (Homo sapiens)
- Construct: CDK12 (aa686-1082)/Cyclin K complex
- Sequence (Q9NYV4 686-1082, species assumed): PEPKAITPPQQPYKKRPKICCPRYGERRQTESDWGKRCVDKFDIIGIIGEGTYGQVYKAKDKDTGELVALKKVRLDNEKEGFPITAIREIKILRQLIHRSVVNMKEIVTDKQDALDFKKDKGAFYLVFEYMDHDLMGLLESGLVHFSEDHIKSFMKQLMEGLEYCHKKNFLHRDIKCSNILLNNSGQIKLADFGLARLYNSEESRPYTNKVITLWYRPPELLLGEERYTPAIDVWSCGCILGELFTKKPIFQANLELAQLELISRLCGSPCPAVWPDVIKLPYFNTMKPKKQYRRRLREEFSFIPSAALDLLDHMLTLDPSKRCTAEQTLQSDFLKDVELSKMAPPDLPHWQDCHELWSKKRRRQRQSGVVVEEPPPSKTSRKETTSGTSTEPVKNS
- Sequence (O75909 whole entry partner, species assumed, the tested form may be a part): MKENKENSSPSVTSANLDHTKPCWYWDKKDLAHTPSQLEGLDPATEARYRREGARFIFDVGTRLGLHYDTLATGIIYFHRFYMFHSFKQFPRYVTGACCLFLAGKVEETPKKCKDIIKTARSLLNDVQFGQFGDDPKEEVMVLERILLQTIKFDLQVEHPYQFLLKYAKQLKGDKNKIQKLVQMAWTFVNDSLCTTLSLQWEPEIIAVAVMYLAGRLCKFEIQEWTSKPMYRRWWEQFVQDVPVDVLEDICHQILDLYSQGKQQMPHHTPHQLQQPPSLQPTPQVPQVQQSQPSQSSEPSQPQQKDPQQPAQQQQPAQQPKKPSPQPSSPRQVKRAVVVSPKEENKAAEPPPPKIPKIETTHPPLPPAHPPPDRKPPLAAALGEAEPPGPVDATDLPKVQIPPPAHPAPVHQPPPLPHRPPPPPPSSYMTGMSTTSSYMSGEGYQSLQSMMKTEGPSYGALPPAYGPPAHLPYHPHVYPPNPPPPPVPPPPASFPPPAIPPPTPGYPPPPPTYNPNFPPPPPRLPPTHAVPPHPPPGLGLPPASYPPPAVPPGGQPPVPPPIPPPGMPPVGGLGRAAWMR
- experiment: CDK12 inhibition assay (Caliper/LabChip EZ Reader kinase assay)
- Format: biochemical
- runConditions: Table 1; CDK12 (aa686-1082)/Cyclin K 50 nM, ATP 2 mM, 3 hr at 27° C.; listed as 108
pIC50: −log10 of the molar value.
metric: pIC50

Suppose we examine the compound N#C[C@H]1CCN(C(=O)c2ccc3c(-c4nc(N[C@H]5CCCNC5)ncc4C(F)(F)F)c[nH]c3c2)C1 ; what pIC50 value has been reported? 5.30 to 6.70

###

- targetOrTestSystem: CDK7/Cyclin H/MAT1 complex (Homo sapiens)
- experiment: CDK7 inhibition assay (Caliper/LabChip EZ Reader kinase assay)
- Type: biochemical
- runConditions: Table 1; CDK7/Cyclin H/MAT1 6 nM, ATP 2 mM, 35 min at 27° C.; listed as 108
metric: IC50

Suppose we examine the compound N#C[C@H]1CCN(C(=O)c2ccc3c(-c4nc(N[C@H]5CCCNC5)ncc4C(F)(F)F)c[nH]c3c2)C1 ; what IC50 value has been reported? 20 to 200 nM

###

Recorded pIC50 for the following compounds
- targetOrTestSystem: CDK7/Cyclin H/MAT1 complex (Homo sapiens, UniProt P50613)
- Sequence (P50613 whole entry, species assumed): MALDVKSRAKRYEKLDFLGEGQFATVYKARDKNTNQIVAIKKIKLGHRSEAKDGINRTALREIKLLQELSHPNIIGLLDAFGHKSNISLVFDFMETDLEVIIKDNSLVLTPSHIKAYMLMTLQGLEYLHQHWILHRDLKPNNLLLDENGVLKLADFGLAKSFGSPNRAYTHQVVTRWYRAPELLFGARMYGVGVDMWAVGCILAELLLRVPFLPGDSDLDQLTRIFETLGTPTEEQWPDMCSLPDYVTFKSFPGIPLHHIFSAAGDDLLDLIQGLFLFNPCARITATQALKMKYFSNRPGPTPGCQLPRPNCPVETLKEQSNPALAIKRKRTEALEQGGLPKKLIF
- Sequence (P51946 whole entry partner, species assumed): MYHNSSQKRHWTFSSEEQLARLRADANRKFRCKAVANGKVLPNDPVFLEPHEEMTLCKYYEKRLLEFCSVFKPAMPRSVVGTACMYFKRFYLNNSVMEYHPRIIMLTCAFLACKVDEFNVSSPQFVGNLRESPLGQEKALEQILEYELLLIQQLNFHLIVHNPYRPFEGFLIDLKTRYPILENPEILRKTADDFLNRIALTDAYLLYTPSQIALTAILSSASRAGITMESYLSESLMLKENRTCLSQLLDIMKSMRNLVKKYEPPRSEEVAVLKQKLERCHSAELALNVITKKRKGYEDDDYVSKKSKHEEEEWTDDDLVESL
- Sequence (P51948 whole entry partner, species assumed): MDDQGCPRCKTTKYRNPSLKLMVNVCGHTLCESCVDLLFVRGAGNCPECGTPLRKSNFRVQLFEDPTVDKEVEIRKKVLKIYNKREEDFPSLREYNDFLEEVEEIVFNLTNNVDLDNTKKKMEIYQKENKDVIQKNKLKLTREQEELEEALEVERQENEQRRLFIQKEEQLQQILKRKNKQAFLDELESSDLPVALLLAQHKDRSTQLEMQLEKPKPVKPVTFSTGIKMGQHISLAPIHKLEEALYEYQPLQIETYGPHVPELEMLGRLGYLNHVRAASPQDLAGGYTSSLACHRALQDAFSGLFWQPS
- experiment: CDK7 inhibition assay (Caliper/LabChip EZ Reader kinase assay)
- Type: biochemical
- runConditions: Table 1; CDK7/Cyclin H/MAT1 6 nM, ATP 2 mM, 35 min at 27° C.
pIC50: −log10 of the molar value.

{"columns": ["compound", "recordedResult"],
 "data": [
  ["CCc1cnc(N[C@H]2CCCNC2)nc1-c1c[nH]c2cc(S(C)(=O)=O)ccc12", "6.70 to 7.70"],
  ["FC(F)n1ccc(-c2ccc3c(-c4nc(N[C@H]5CCCNC5)ncc4C(F)(F)F)c[nH]c3c2)n1", "6.70 to 7.70"],
  ["CCc1cnc(N[C@H]2CCCNC2)nc1-c1c[nH]c2c(S(C)(=O)=O)c(C#N)ccc12", "> 7.70"],
  ["CCN1C[C@@H](Nc2ncc(C(F)(F)F)c(-c3c[nH]c4cc(S(C)(=O)=O)ccc34)n2)CC(C)(C)C1", "6.70 to 7.70"],
  ["CC1CCNCC1Nc1ncc(C(F)(F)F)c(-c2c[nH]c3ccccc23)n1 (single isomer, unassigned) [Compound 372]", "6.70 to 7.70"]
]}

Suppose we examine the compound CCc1cnc(NC2CCCNC2)nc1-c1c[nH]c2c(F)cccc12 (stereo not drawn) ; what pIC50 value has been reported? > 7.70

Suppose we examine the compound FC(F)(F)c1cnc(N[C@@H]2CNC[C@H](c3nnc4ccccn34)C2)nc1-c1c[nH]c2ccccc12 [Compound 267] ; what pIC50 value has been reported? 6.70 to 7.70

Suppose we examine the compound O=S(=O)(CF)c1ccc2c(-c3nc(N[C@H]4CCCNC4)ncc3C(F)(F)F)c[nH]c2c1 ; what pIC50 value has been reported? > 7.70

Suppose we examine the compound O[C@H]1CC[C@@H](c2cccc3c(-c4nc(N[C@H]5CCCNC5)ncc4C(F)(F)F)c[nH]c32)CC1 ; what pIC50 value has been reported? > 7.70

Suppose we examine the compound C=Cc1cnc(N[C@H]2CCCNC2)nc1-c1c[nH]c2ccccc12 ; what pIC50 value has been reported? > 7.70

Suppose we examine the compound CP(C)(=O)c1cccc2c(-c3nc(N[C@H]4CCCNC4)ncc3C(F)(F)F)c[nH]c12 [Compound 352] ; what pIC50 value has been reported? < 5.30

Suppose we examine the compound N#Cc1ccc2c(-c3nc(N[C@H]4CCCNC4)ncc3SC(F)F)c[nH]c2c1 ; what pIC50 value has been reported? 6.70 to 7.70

Suppose we examine the compound N#Cc1ccc2c(-c3nc(N[C@@H]4CCC5(CCC5)NC4)ncc3C(F)(F)F)c[nH]c2c1 (single isomer, unassigned) ; what pIC50 value has been reported? > 7.70

Suppose we examine the compound CC(O)c1cnc(N[C@H]2CCCNC2)nc1-c1c[nH]c2ccccc12 (mixture of isomers) ; what pIC50 value has been reported? 5.30 to 6.70

Suppose we examine the compound CS(=O)(=O)c1c(C#N)ccc2c(-c3nc(N[C@H]4CCCNC4)ncc3Cl)c[nH]c12 ; what pIC50 value has been reported? > 7.70

###

Recorded pIC50 for the following compounds
- targetOrTestSystem: CDK9/Cyclin T1 complex (Homo sapiens, UniProt P50750)
- Sequence (P50750 whole entry, species assumed): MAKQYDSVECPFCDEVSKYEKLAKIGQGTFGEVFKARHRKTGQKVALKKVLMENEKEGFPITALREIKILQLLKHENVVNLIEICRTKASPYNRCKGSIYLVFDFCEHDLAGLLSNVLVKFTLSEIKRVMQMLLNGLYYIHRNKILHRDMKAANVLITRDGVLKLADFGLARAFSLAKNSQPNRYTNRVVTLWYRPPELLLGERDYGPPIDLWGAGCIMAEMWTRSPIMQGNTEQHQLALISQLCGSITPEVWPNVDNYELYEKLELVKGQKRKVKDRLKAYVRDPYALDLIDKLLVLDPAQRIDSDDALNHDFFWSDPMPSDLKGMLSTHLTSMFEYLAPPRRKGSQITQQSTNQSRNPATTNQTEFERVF
- Sequence (O60563 whole entry partner, species assumed): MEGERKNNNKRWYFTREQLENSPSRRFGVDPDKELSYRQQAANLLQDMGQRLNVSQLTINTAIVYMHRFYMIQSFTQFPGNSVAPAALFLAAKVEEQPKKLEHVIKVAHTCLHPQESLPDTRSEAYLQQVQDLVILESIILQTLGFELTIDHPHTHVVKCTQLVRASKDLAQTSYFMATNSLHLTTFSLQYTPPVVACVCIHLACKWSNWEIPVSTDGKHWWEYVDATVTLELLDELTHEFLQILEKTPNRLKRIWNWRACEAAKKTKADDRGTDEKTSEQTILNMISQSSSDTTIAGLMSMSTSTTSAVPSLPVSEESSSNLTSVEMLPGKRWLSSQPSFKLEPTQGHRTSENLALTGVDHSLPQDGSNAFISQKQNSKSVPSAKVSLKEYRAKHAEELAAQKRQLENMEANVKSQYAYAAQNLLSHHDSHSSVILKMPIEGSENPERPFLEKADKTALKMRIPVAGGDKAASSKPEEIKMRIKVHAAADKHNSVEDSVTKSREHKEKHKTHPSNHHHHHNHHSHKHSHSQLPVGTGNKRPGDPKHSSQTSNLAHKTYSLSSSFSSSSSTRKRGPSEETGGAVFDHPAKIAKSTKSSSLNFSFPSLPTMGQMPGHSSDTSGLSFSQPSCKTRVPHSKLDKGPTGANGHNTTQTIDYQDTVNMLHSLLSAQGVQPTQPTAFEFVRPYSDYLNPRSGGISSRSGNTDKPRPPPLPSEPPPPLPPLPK
- experiment: CDK9 inhibition assay (Caliper/LabChip EZ Reader kinase assay)
- Assay type: biochemical
- runConditions: Table 1; CDK9/Cyclin T1 8 nM, ATP 2 mM, 15 min at 27° C.
pIC50: −log10 of the molar value.

Worked examples, 3 compounds total:
{"columns": ["compound", "metric", "recordedResult"],
 "data": [
  ["C#Cc1cnc(N[C@H]2CCCNC2)nc1-c1cn(C)c2ccccc12", "pIC50", "< 5.30"],
  ["CNC(=O)C1CNCC(Nc2ncc(C(F)(F)F)c(-c3c[nH]c4ccccc34)n2)C1 (single isomer, unassigned) [Compound 253]", "pIC50", "5.30 to 6.70"],
  ["Cc1c(-c2ccc3c(-c4nc(N[C@H]5CCCNC5)ncc4C(F)(F)F)c[nH]c3c2)cnn1C", "pIC50", "5.30 to 6.70"]
]}

Could you now look at the following compound, please?
I'm curious: which pIC50 was measured for O=C(c1ccc2c(-c3nc(N[C@H]4CCCNC4)ncc3C(F)(F)F)c[nH]c2c1)N1CC[C@@H](O)C1 tested on CDK9/Cyclin T1 complex (Homo sapiens, UniProt P50750)? < 5.30
